Measured gcPBM binding intensity (ln) values are reported for all entries that follow.
System: PfSIP2 AP2 domain 1 (GST-tagged)
assayText: gcPBM binding intensity (ln(normalized median fluorescence intensity)); higher = stronger DNA binding
The full ranking holds about 25,000 sequences; the median of “ln(normalized median fluorescence intensity)” is about 7.1, and the highest 2% start at about 10. The full list was thinned out, with the highest values kept by preference.

Some solved cases for reference:
Need gcPBM binding intensity (ln), item TCCTTTTGAACCCTTTTTCTCACAAGACCTTTATAT [TGCATGCA_negctrl_site413] 7.05

Moving on to TTTTAACATATAAGTACACACATATAATCAATCATA [CACACA_site2325] 7.25

Same thing, different sequence: ATACTAACATTTTTTTGTACATATAACTATAAAATA [XGTACX_site1033] 7.32

Continuing:
Tell me the measured gcPBM binding intensity (ln) of AAATGAATTTAACAATGTACACATATATTATAAATA [XGTACX_site1449] , please. 7.13

###

System: PfSIP2 AP2 domain 1 (GST-tagged)
assayText: gcPBM binding intensity (ln(normalized median fluorescence intensity)); higher = stronger DNA binding
Whole data set: some 25,000 sequences, median “ln(normalized median fluorescence intensity)” near 7.1, cut for the highest 2% near 10. The entries come from a sample that favours the highest values as a whole.
Reported gcPBM binding intensity (ln) values are given for each entry in this list.
Keep the answer to the number alone.

In the examples that follow, each entry is paired with its recorded gcPBM binding intensity (ln).
// returns reported gcPBM binding intensity (ln) for input CCCCATATAATGAACACACACACTCCTCATAATTAA [CACACA_site628] 7.15

Now consider ATGGTGCAACATTATGCACACCGTTAAATAACTAAT [CACACA_site9280] and answer again. 11.8

Follow-up item: TTATTTTATTTTTGTGCACACTGATAAATTGAAAAG [CACACA_site2949] 10.2

Similarly, AAAAAAAAAATATTTGAACACACGAGGATATATAAA [CACACA_site139] ? 6.89

Proceed to TTTTATTTTCGATGATGTACATTAAATTATACAGTA [XGTACX_site6053] 7.01

Further cases:
// lookup gcPBM binding intensity (ln) for CAGGTGCACTATATTACACACGCTTCTTTTTTTTTA [CACACA_site2069] 12.4

Further, for TTTATCTAAATATGTGTGCACTCGTTAATTTTTTTT ? 10.5

Another: GAAAGAAGCATAAATGTACACACATATTTATATATT [CACACA_site8368] 7.04

Would you kindly repeat that for ACTTGTTTTCAATGTAAAATACAATTTTCATTTATT [CACACA_negctrl_site435] ? 7.08

Record: TCATAAACATTATGCACACAAAAATAAAAAAAAATA [CACACA_site1115] 7.52

Continue with GATTCATCTAAACACCGTACATATTATATATATATA [XGTACX_site6030] 9.22

Do the same for AAAAAAAAAAAAAAAAAAATATATTATATATATATA [XGTACX_negctrl_site467] please 9.19

Item: AAATAGTTGTTAAAGGTGCACAATATGGATATAAGA 11.2

###

Test system: PfSIP2 AP2 domain 1 (GST-tagged)
assayText: gcPBM binding intensity (ln(normalized median fluorescence intensity)); higher = stronger DNA binding
Whole data set: some 25,000 sequences, median “ln(normalized median fluorescence intensity)” near 7.1, cut for the highest 2% near 10. This excerpt belongs to a sample that is enriched for the highest values.
measure: gcPBM binding intensity (ln)
API note: the answer field is a bare number with no unit suffix.

Here are 2 sequences together with their reported answers.
// query gcPBM binding intensity (ln) value for entry AAAAAAAAAAAAAAAGTGCACAGTCGTTTTAAAAAA [GTGCAC_site9848] 10.7

What do we get for AGTTTTATATAAGCTTGTACTTAATATTATTAAGTA [XGTACX_site5919] ? 6.99

---
Tell me the measured gcPBM binding intensity (ln) of TATATATATAAAAGTTGTACAGTGTTTTATATAGTT [XGTACX_site7085] , please. 8.13

Likewise for GTCTAAAAATAAAAAGTGCATTTGTTTAATATTTTG ? 9.52

Check TTTTTTTTTTTTTGTTGTACCCATCATATATACATA [XGTACX_site4342] too. 7.11

###

System: PfSIP2 AP2 domain 1 (GST-tagged)
assayText: gcPBM binding intensity (ln(normalized median fluorescence intensity)); higher = stronger DNA binding
Over roughly 25,000 sequences, “ln(normalized median fluorescence intensity)” has its median near 7.1; the highest 2% begin near 10. What follows is part of a selection rich in the highest values, with near analogues and random picks from the rest.
measure: gcPBM binding intensity (ln)
Field format: numeric only.

Reported gcPBM binding intensity (ln), sequence TCTGTATATTTCGCGCGTACGAACAAATTGATAATT [XGTACX_site7965] : ____ 7.11

Same question for ATAGTTTTATATAAATGTACAAATGATTTCAAATAG [XGTACX_site8236] please. 7.08

Next up: ATACGAAAAAATAGACGTACTATGAAATAATAATTT [XGTACX_site8387] 6.87

Here is the next sequence: TTGTATATATTTCCTTGTACGTAATAATTCTTATTG [XGTACX_site3938] 7.19

Also GTAGTGGTTGAATATACACACATATATAAATAAATA [CACACA_site7282] , if possible. 7

###

Tested on: PfSIP2 AP2 domain 1 (GST-tagged)
assayText: gcPBM binding intensity (ln(normalized median fluorescence intensity)); higher = stronger DNA binding
Over roughly 25,000 sequences, “ln(normalized median fluorescence intensity)” has its median near 7.1; the highest 2% begin near 10. The list comes from a sample in which the highest values are over-represented; it also holds close analogues and randomly drawn sequences.
List of gcPBM binding intensity (ln) values.
Answer as a number with no unit attached.

Lab note: need gcPBM binding intensity (ln) for AAAAAAAAAAAAAAAGCACACACCAATGAGCAGCTT [CACACA_site1845] on PfSIP2 AP2 domain 1 (GST-tagged), anyone have it? 7.62

Same thing, different sequence: TGTGCGGAAATAAGTGCACACATAGATATCTGTATT [CACACA_site5935] 10.9

Also check ATAAACATATAAAAAGTGCATATTCATATATCTACT 8.7

Another: AGGAATATAAAGTGCACACATAATTTGGGGGCAAAA [CACACA_site258] 11.7

Please do the same for AATAAATAGATATATACACACATATATGTGTACATA [CACACA_site7476] as well. 7.06

Others:
Param readout= gcPBM binding intensity (ln); system= PfSIP2 AP2 domain 1 (GST-tagged); entry= ATATTATATATATAGGTGCGAGTATTTTATAAATAT [GTGCAC_site9889] ; returns value. 9.06

Ok, now TTTTTATTTATATGATACTTATATATATATATATAT [CACACA_negctrl_site462] 9.5

Now the same for ATCTATATCTATAATACACACATCATAAAATATGTA [CACACA_site7230] 7.19

Also need TATGTATAAATATATGCACACATATATATATTTATA [CACACA_site9150] , thanks. 7.18

Please give the result for TAAAAAAAAACATATACACACAAAAACGTACACATA [CACACA_site1354] too. 7.29

# repeat for AAACAGAATACATATACACACATACAAAAAAGTGCA [CACACA_site8235] 7.52

// query: TTTTGTTATTTTTTAGTGCATATAAAGGTTGTTAAG 8.64

ACACATTATAACAAGGTGCAATTTTTATACACATGT [GTGCAC_site9866] ? 10.4

Follow-up entry: TTATAAATATAATTTTGTACATATATATATATATAC [XGTACX_site5064] 7.39

Another: AATATTAAACAAAATAAATATATAAAAAATAAATAA [GTGCAC_negctrl_site93] 6.79

Here is the next sequence: TTAAAAGTAAGCAAAGTGCATATAACAAAAGTAAAG 8.19

Another sequence to look at: TATAAATATCTGTATGCACACATTTTTTTTGGAAAA [CACACA_site4734] 8.04

Field entry: TTTTAAATTTTTTAAAGTACACGTCGAAAAGGTATA [XGTACX_site76] 7.93

Query AAGAAGAAACGGAAAAGTACAAAGAAGAAATAAGTA [XGTACX_site3680] next 6.85

And the next one, TACAAATATATATGCACACACATATCTGTATATGTG [CACACA_site5663] ? 7.66

And what about the sequence TCAGGAATATAAAGTGCACACATAATTTGGGGGCAA [CACACA_site7974] ? 11.2

What do we get for TGTGCGGAAATAAGTGCACACATAGATATATGTATT [CACACA_site9227] ? 10.8

Same for AAATTAAAGATAAAAGTGCAAAATTATAAATTTATT 7.97

Likewise for TGTTGTATATCTCTATATAGCTATATTGTATATATA [TGCATGCA_negctrl_site323] ? 6.97

These data points were gathered from the supplement of paper PMC11417369.
